Values from paper doi:10.1101/2024.08.19.608619

Assay: Hepatic microsomal stability, HLM
Type: in vitro ADME, human
Conditions: In vitro human liver microsomal stability
PROPERTY_LABEL: clint (µL/min/mg)
Please respond with the number in µL/min/mg and leave the unit unwritten.

>  <COMPOUND>
CC(C)[C@H](Nc1ncnc2[nH]cc(C(N)=O)c12)c1ccc2c(c1)OCCO2 (racemic)

>  <QUANTITY_UNIT>
µL/min/mg

>  <clint>
143.0

$$$$
>  <COMPOUND>
CCNC(=O)c1cc2c(N[C@H](c3ccc4c(c3)S(=O)(=O)CCC4)C(C)C)ncnc2[nH]1 [ASAP-0012325]

>  <QUANTITY_UNIT>
µL/min/mg

>  <clint>
109.0

$$$$
>  <COMPOUND>
CC(C)[C@@H](Nc1ncnc2[nH]c(-c3cnn(C)c3)cc12)c1ccc2c(c1)S(=O)(=O)CCC2 (single isomer, unassigned) [ASAP-0012329]

>  <QUANTITY_UNIT>
µL/min/mg

>  <clint>
405.0

$$$$

We next turn to a different compound, shown below.
Query string: Which clint value belongs to CC(C)[C@@H](Nc1ncnc2[nH]c(-c3cnn(C)c3)cc12)c1ccc2c(c1)S(=O)(=O)CCC2 [ASAP-0008678] ?
Result string: 141.0

###

Molecular target: 5-HT1A (h) (Homo sapiens)
Construct: purchased Eurofins Cerep (SafetyScreen44), recognised from the panel format
Sequence (P08908 whole entry): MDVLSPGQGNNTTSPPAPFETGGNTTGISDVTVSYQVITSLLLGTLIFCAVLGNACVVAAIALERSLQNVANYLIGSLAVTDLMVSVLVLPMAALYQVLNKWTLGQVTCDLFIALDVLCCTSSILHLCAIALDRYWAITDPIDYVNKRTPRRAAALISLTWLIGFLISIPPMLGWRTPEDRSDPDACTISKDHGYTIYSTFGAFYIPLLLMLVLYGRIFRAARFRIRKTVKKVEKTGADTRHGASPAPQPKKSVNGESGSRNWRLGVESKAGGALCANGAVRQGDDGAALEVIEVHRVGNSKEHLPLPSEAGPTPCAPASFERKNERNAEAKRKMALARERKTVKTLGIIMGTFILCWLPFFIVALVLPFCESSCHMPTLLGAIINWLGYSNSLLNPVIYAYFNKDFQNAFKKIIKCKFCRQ
Test: In vitro CEREP profiling, 5-HT1A (h) (agonist radioligand)
Type: binding
Settings: test compound concentration 10 uM
Listed next: entries and their corresponding perc_inhibition (% inhibition of the binding of a ligand specific for each target).

Before answering, review these 5 worked examples.
>  <CHEMICAL_STRUCTURE>
CC(C)[C@H](Nc1ncnc2[nH]c(-c3cnn(C)c3C#N)cc12)c1ccc2c(n1)OCCO2

>  <VALUE_MEASURED>
43%

$$$$
>  <CHEMICAL_STRUCTURE>
COc1ccc([C@H](Cc2nnn[nH]2)NC(=O)c2ncnc3[nH]ccc23)cc1

>  <VALUE_MEASURED>
5%

$$$$
>  <CHEMICAL_STRUCTURE>
CC(C)[C@H](Nc1ncnc2[nH]ccc12)c1ccc2c(c1)S(=O)(=O)CCC2

>  <VALUE_MEASURED>
12%

$$$$
>  <CHEMICAL_STRUCTURE>
CNCc1cc(-c2cc3c(N[C@@H](c4ccc5c(c4)S(=O)(=O)CCC5)C(C)C)ncnc3[nH]2)co1

>  <VALUE_MEASURED>
6%

$$$$
>  <CHEMICAL_STRUCTURE>
Cn1ncc(-c2cc3c(N[C@@H](c4ccc5c(n4)OCCO5)C(C)(C)C)ncnc3[nH]2)c1C#N

>  <VALUE_MEASURED>
15%

$$$$

Query string: Which perc_inhibition (% inhibition of the binding of a ligand specific for each target) value belongs to CC(C)[C@@H](Nc1ncnc2[nH]c(-c3cnn(C)c3C#N)cc12)c1ccc2c(n1)OCCO2 ?
Result string: 22%

Query string: Which perc_inhibition (% inhibition of the binding of a ligand specific for each target) value belongs to C[C@H](C(=O)O)[C@@H](NC(=O)c1ncnc2[nH]ccc12)c1ccc(Br)cc1 ?
Result string: 2%

###

Assay: Hepatic microsomal stability, HLM
Type: in vitro ADME, human
Conditions: In vitro human liver microsomal stability
PROPERTY_LABEL: t_half (min)
Please respond with the number in min and leave the unit unwritten.

>  <COMPOUND>
CNCc1cc(-c2cc3c(N[C@H](c4ccc5c(c4)S(=O)(=O)CCC5)C(C)C)ncnc3[nH]2)co1 (single isomer, unassigned) [ASAP-0011169]

>  <QUANTITY_UNIT>
min

>  <t_half>
25.1

$$$$

Query string: Which t_half value belongs to CC(C)[C@H](Nc1ncnc2[nH]c(-c3cnn(C)c3C#N)cc12)c1ccc2c(n1)NC(=O)CO2 (single isomer, unassigned) [ASAP-0011177] ?
Result string: 12.2

Query string: Which t_half value belongs to CNC(=O)c1c[nH]c2ncnc(N[C@H](c3ccc4c(c3)S(=O)(=O)CCC4)C(C)C)c12 (racemic) [ASAP-0008641] ?
Result string: 12.8

Query string: Which t_half value belongs to CC(C)[C@@H](Nc1ncnc2[nH]c(-c3cnn(C)c3C#N)cc12)c1ccc2c(n1)NC(=O)CO2 (single isomer, unassigned) [ASAP-0011180] ?
Result string: 32.6

###

Molecular target: MAO-A (Rattus norvegicus, UniProt P21396)
Construct: purchased Eurofins Cerep (SafetyScreen44), recognised from the panel format
Sequence (P21396 1-526): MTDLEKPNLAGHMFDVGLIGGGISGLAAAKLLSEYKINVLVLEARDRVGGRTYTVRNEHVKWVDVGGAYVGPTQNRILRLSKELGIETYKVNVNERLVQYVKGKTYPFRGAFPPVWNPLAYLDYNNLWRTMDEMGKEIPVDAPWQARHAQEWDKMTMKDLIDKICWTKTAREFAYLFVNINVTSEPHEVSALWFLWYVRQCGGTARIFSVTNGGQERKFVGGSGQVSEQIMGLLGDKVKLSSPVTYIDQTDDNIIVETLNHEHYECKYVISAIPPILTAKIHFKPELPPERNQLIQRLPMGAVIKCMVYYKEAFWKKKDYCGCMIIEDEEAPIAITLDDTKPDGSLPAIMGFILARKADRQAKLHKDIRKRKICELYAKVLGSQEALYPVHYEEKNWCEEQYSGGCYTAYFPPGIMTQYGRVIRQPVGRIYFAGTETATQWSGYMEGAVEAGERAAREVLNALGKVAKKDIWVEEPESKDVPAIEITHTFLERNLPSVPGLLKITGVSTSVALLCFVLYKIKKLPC
Assay: In vitro CEREP profiling, MAO-A (antagonist radioligand)
Format: binding
Details: test compound concentration 10 uM
Listed next: entries and their corresponding perc_inhibition (% inhibition of the binding of a ligand specific for each target).
Please respond with the number in % and leave the unit unwritten.

Before answering, review these 3 worked examples.
>  <CHEMICAL_STRUCTURE>
CNCc1cc(-c2cc3c(N[C@@H](c4ccc5c(c4)S(=O)(=O)CCC5)C(C)C)ncnc3[nH]2)co1

>  <VALUE_MEASURED>
11

$$$$
>  <CHEMICAL_STRUCTURE>
COc1ccc([C@H](Cc2nnn[nH]2)NC(=O)c2ncnc3[nH]ccc23)cc1

>  <VALUE_MEASURED>
0

$$$$
>  <CHEMICAL_STRUCTURE>
Cn1ncc(-c2cc3c(N[C@@H](c4ccc5c(n4)OCCO5)C(C)(C)C)ncnc3[nH]2)c1C#N

>  <VALUE_MEASURED>
10

$$$$

We next turn to a different molecule, shown below.
Query string: Provide value of perc_inhibition (% inhibition of the binding of a ligand specific for each target) for this record tested with MAO-A (Rattus norvegicus, UniProt P21396): CC(C)[C@H](Nc1ncnc2[nH]ccc12)c1ccc2c(c1)S(=O)(=O)CCC2
Result string: 7

###

Experiment: Hepatic microsomal stability, HLM
Format: in vitro ADME, human
Settings: In vitro human liver microsomal stability; no cofactor
PROPERTY_LABEL: perc_remaining_no_cofactor (%)
Please respond with the number in % and leave the unit unwritten.

Before answering, review these 2 worked examples.
>  <MOLECULE>
CC(C)[C@H](Nc1ncnc2[nH]c(-c3cnn(C)c3C#N)cc12)c1ccc2c(n1)NC(=O)CO2 (single isomer, unassigned)

>  <PROPERTY_LABEL>
perc_remaining_no_cofactor

>  <QUANTITY_UNIT>
%

>  <VALUE_MEASURED>
92.0

$$$$
>  <MOLECULE>
CC(C)(C)[C@@H](Nc1ncnc2[nH]c(-c3cnn(CC(N)=O)c3)cc12)c1ccc2c(n1)OCCO2

>  <PROPERTY_LABEL>
perc_remaining_no_cofactor

>  <QUANTITY_UNIT>
%

>  <VALUE_MEASURED>
107.0

$$$$

We next turn to a different molecule, shown below.
Query string: Which perc_remaining_no_cofactor value belongs to CNCc1cc(-c2cc3c(N[C@@H](c4ccc5c(c4)S(=O)(=O)CCC5)C(C)C)ncnc3[nH]2)co1 [ASAP-0011176] ?
Result string: 95.0

###

Assay: Hepatic microsomal stability, MLM
Assay type: in vitro ADME
Details: In vitro mouse liver microsomal stability
Lab note: cut-off is 50%. Strictly less in perc_remaining is True. Exactly 50% or more is False.

Here's what some known entries look like.
>  <COMPOUND>
CNC(=O)c1cc2c(N[C@@H](c3ccc4c(c3)S(=O)(=O)CCC4)C(C)C)ncnc2[nH]1 (single isomer, unassigned) [ASAP-0012346]

>  <ASSIGNED_LABEL>
False

$$$$
>  <COMPOUND>
Cc1nn(C)cc1-c1cc2c(NC(c3ccc4c(c3)S(=O)(=O)CCC4)C(C)C)ncnc2[nH]1 (stereo not drawn) [ASAP-0011446]

>  <ASSIGNED_LABEL>
True

$$$$
>  <COMPOUND>
CC(C)[C@@H](Nc1ncnc2[nH]c(-c3cnn(C)c3C#N)cc12)c1ccc2c(n1)OCCO2 [ASAP-0010716]

>  <ASSIGNED_LABEL>
True

$$$$
>  <COMPOUND>
CC(C)(C)[C@H](Nc1ncnc2[nH]c(-c3cnn(CC(N)=O)c3)cc12)c1ccc2c(c1)OCCO2 (racemic) [ASAP-0008581]

>  <ASSIGNED_LABEL>
True

$$$$

Query string: Just wondering, is perc_remaining of O=C(Nc1cccc2c(C(=O)N[C@H]3c4ccccc4C[C@H]3C(=O)O)c[nH]c12)NC1CC1 (racemic) [ASAP-0000627] below 50%?
Result string: False
